Record set: IC50 | Coagulation factor XI (Homo sapiens) | literature, multiple sources.

{"columns": ["molecule", "IC50"],
 "data": [
  ["CC[C@@H](NC(=O)N1C(=O)[C@H](Cc2cc(C)nc(N)c2)[C@H]1C(=O)N(C)c1ccn(C)n1)c1cccc(C)c1", "< 0.01 µM"],
  ["C[C@@H](NC(=O)N1C(=O)[C@H](Cc2ccnc(N)c2)[C@H]1C#N)c1ccccc1", "< 0.01 µM"],
  ["CC[C@@H](NC(=O)N1C(=O)[C@H](Cc2ccnc(N)c2)[C@H]1C(=O)N(C)c1ccnn1C)c1cccc(Cl)c1", "< 0.01 µM"],
  ["CN(C)c1ccnc2ccc(NC(=O)C3CCC4CC(c5c(-n6cc(Cl)nn6)ccc(Cl)c5F)=CC(=O)N43)cc12 (centres unmarked)", "> 0.05 µM"],
  ["CC[C@@H](NC(=O)N1C(=O)[C@H](Cc2ccnc(N)c2)[C@H]1C(=O)N(C)c1ccccc1C)C1CCCCC1", "0.01 to 0.1 µM"]
]}

---

Collected from the literature: IC50 of various molecules toward Coagulation factor XI (Homo sapiens).
metric: IC50

{"columns": ["molecule", "tested system", "observed measurement"],
 "data": [
  ["CC[C@@H](NC(=O)N1C(=O)[C@H](Cc2ccnc(N)c2)[C@H]1C(=O)N(C)c1ccn(C)n1)c1ccn(C)n1", "Coagulation factor XI (Homo sapiens)", "100 to 1000 nM"],
  ["CC[C@@H](NC(=O)N1C(=O)[C@H](Cc2ccnc(N)c2)[C@H]1C(=O)N(C)c1ccncc1)c1ccc(F)c(F)c1", "Coagulation factor XI (Homo sapiens)", "10 to 100 nM"],
  ["CC[C@@H](NC(=O)N1C(=O)[C@H](Cc2cc(C)nc(N)c2)[C@H]1C(=O)N(C)c1ccnn1C)c1ccc(F)c(C)c1", "Coagulation factor XI (Homo sapiens)", "< 10 nM"],
  ["CCc1cccc([C@@H](CC)NC(=O)N2C(=O)[C@H](Cc3ccnc(N)c3)[C@H]2C(=O)N(C)c2cnn(C)c2)c1", "Coagulation factor XI (Homo sapiens)", "< 10 nM"],
  ["CC[C@@H](NC(=O)N1C(=O)[C@H](Cc2cc(C)nc(N)c2)[C@H]1C(=O)N(C)c1ccnn1C)C1CCCCC1", "Coagulation factor XI (Homo sapiens)", "10 to 100 nM"],
  ["COc1cn(C(CC2COCCO2)C(=O)Nc2ccc(C(N)=O)c(F)c2)c(=O)cc1-c1cc(Cl)ccc1OCC(F)F (centres unmarked)", "Coagulation factor XI (Homo sapiens)", "9.7 nM"],
  ["CN(C(=O)[C@@H]1[C@@H](Cc2ccnc(N)c2)C(=O)N1C(=O)N[C@H](C1CCCCC1)C1CC1)c1ccccc1", "Coagulation factor XI (Homo sapiens)", "< 10 nM"],
  ["CC[C@@H](NC(=O)N1C(=O)[C@H](Cc2cc(C)nc(N)c2)[C@H]1C(=O)N(C)c1ccnn1C)c1ccc(Cl)cc1", "Coagulation factor XI (Homo sapiens)", "10 to 100 nM"]
]}

---

A compilation of IC50 values for Coagulation factor XI (Homo sapiens, UniProt P03951) from the published literature.

{"columns": ["structure as smiles", "IC50"],
 "data": [
  ["O=C(Cc1ccc(-c2c(F)ccc(Cl)c2F)c[n+]1[O-])Nc1ccc(C(=O)O)cc1", "89.2 nM"],
  ["Cc1ncc(-c2c(C(F)F)ccc(Cl)c2F)nc1C(=O)Nc1cnn(Cc2cnc(N3C[C@H]4C[C@H]4C3=O)c(N)c2)c1", "111 nM"],
  ["CC[C@@H](NC(=O)N1C(=O)[C@H](Cc2ccnc(N)c2)[C@H]1C(=O)N(C)c1nccn1C)c1cc(C)ccc1Cl", "< 10 nM"],
  ["CC[C@@H](NC(=O)N1C(=O)[C@H](Cc2ccnc(N)c2)[C@H]1C(=O)N(C)c1ccn(C)n1)c1cccc(F)c1C", "< 10 nM"],
  ["CC[C@@H](NC(=O)N1C(=O)[C@H](Cc2cc(C)nc(N)c2)[C@H]1C(=O)N(C)c1cnn(C)c1)c1cccc(F)c1F", "10 to 100 nM"]
]}

---

Please find below IC50 measurements for Coagulation factor XI (Homo sapiens), combined from several publications.

{"columns": ["structure as smiles", "IC50"],
 "data": [
  ["CN(C(=O)[C@@H]1[C@@H](Cc2ccnc(N)c2)C(=O)N1C(N)=O)c1ccncc1", "10 to 100 nM"],
  ["CC[C@@H](NC(=O)N1C(=O)[C@H](Cc2ccnc(N)c2)[C@H]1C(=O)N(C)c1nccn1C)c1cc(F)c(F)c(F)c1", "< 10 nM"],
  ["CN(C(=O)[C@@H]1[C@@H](Cc2ccnc(N)c2)C(=O)N1C(=O)N[C@@H](C1CCCCC1)C(F)(F)F)c1cccc(F)c1", "< 10 nM"],
  ["CCOC(=O)[C@@H]1[C@@H](Cc2ccnc(NC)c2)C(=O)N1C(=O)N[C@H](C)c1ccc2c(c1)OC(F)(F)O2", "< 10 nM"],
  ["CC[C@@H](NC(=O)N1C(=O)[C@H](Cc2ccnc(N)c2)[C@H]1C(=O)N(C)c1ncncn1)C1CCCCC1", "< 10 nM"]
]}

---

pIC50: −log10 of the molar value.
A compilation of pIC50 values for Coagulation factor XI (Homo sapiens, UniProt P03951) from the published literature.

{"columns": ["compound", "tested system", "pIC50"],
 "data": [
  ["CCC[C@@H](NC(=O)N1C(=O)[C@H](Cc2ccnc(N)c2)[C@H]1C(=O)N(C)c1ccn(C)n1)C1CCCCC1", "Coagulation factor XI (Homo sapiens, UniProt P03951)", "7.00 to 8.00"],
  ["Cc1cc(C(C)n2cc(NC(=O)c3cc(-c4c(C(F)F)ccc(Cl)c4F)nnc3C)cn2)cnc1N1C[C@H]2C[C@H]2C1=O (single isomer, unassigned)", "Coagulation factor XI (Homo sapiens, UniProt P03951)", "< 5.00"],
  ["COCCC(C(=O)Nc1ccc(C(N)=O)nc1)n1cc2c(cc1=O)-c1cc(Cl)ccc1CC1(CC1)NC2=O (stereo not drawn)", "Coagulation factor XI (Homo sapiens, UniProt P03951)", 7.47]
]}

---

Record: compiled IC50 on UniProtKB P03951 from multiple reports.

{"columns": ["structure as smiles", "IC50"],
 "data": [
  ["CC[C@@H](NC(=O)N1C(=O)[C@H](Cc2cc(C)nc(N)c2)[C@H]1C(=O)N(C)c1nccn1C)c1cc(C)ccc1Cl", "< 10 nM"],
  ["C[C@@H](NC(=O)N1C(=O)[C@H](Cc2ccnc(N)c2)[C@H]1C(=O)O)c1ccc(OC(F)(F)F)cc1", "< 10 nM"],
  ["CC[C@@H](NC(=O)N1C(=O)[C@H](Cc2cc(C)nc(N)c2)[C@H]1C(=O)N(C)c1ccnn1C)c1ccc(C)cc1F", "< 10 nM"],
  ["C[C@@H](c1cnc(N2C[C@H]3C[C@H]3C2=O)nc1N)n1cc(NC(=O)c2cncc(-c3c(C(F)F)ccc(Cl)c3F)n2)cn1", "> 10000 nM"]
]}

---

Collected from the literature: IC50 of various compounds toward Coagulation factor XI (Homo sapiens, UniProt P03951).
metric: IC50 (nM)

{"columns": ["compound", "modifier", "observed measurement"],
 "data": [
  ["CC[C@@H](NC(=O)N1C(=O)[C@H](Cc2ccnc(N)c2)[C@H]1C(=O)N(C)c1ccnn1C)c1ccc(F)c(F)c1", "<", 10],
  ["CCC[C@@H](NC(=O)N1C(=O)[C@H](Cc2ccnc(N)c2)[C@H]1C(=O)O)c1ccc2c(c1)OC(F)(F)O2", "<", 10],
  ["CCC(C(=O)Nc1ccc(-c2noc(=O)[nH]2)cc1)n1cc2c(cc1=O)-c1cc(Cl)ccc1CCNC2=O (centres unmarked)", "=", 44],
  ["Nc1cc(-c2nccs2)nn1CC(=O)N1CC[C@@]2(C1)OC(=O)Nc1ccc(Cl)c(F)c12", "=", 286],
  ["O=C1Nc2ccc(Cl)c(F)c2[C@@]2(CCCN(C(=O)c3nnc(C(Cc4ccccc4)c4ccccc4)[nH]3)C2)O1 (single isomer, unassigned)", "=", 2990],
  ["CC[C@@H](NC(=O)N1C(=O)[C@H](Cc2ccnc(N)c2)[C@H]1C(=O)N(C)c1ccn(C)n1)c1cccc(C)c1C", "<", 10],
  ["CC(c1cnc(N2C[C@H]3C[C@H]3C2=O)c(F)c1)n1cc(NC(=O)c2nc(-c3c(C(F)F)ccc(Cl)c3F)cnc2COC(C)(C)C)cn1 (single isomer, unassigned)", ">", 10000],
  ["CC[C@@H](NC(=O)N1C(=O)[C@H](Cc2ccnc(N)c2)[C@H]1C(=O)N(C)c1ccn(C)n1)c1cc(F)ccc1C", "<", 10],
  ["CNC(=O)c1ccc(NC(=O)C(Cc2ccn(C)n2)n2cc(C3CC3)c(-c3cc(Cl)ccc3C#N)cc2=O)cn1 (racemic)", "=", 200],
  ["COc1cn(C(Cc2cocn2)C(=O)Nc2ccc3nccn3c2)c(=O)cc1-c1cc(Cl)ccc1C#N (racemic)", "=", 92],
  ["CO[C@H]1C[C@@H](C(=O)Nc2ccc3ncccc3c2)N2C(=O)C=C(c3c(-n4cnnn4)ccc(Cl)c3F)CC12 (mixture of isomers)", "=", 180],
  ["CC[C@@H](NC(=O)N1C(=O)[C@H](Cc2cc(C)nc(N)c2)[C@H]1C(=O)N(C)c1ccnn1C)c1cc(F)ccc1C", "<", 10],
  ["CO[C@H]1CN(C[C@@H]2CCN2c2ncc(C(C)n3cc(NC(=O)c4cncc(-c5c(C(F)F)ccc(Cl)c5F)n4)cn3)cn2)C[C@@H]1O (some centres unmarked)", "=", 4270],
  ["CC[C@@H](NC(=O)N1C(=O)[C@H](Cc2ccnc(N)c2)[C@H]1C(=O)N(C)c1cn(C)cn1)C1CCCCC1", "<", 10],
  ["Nc1c2c(nn1CC(=O)N1CCC[C@@]3(C1)OC(=O)Nc1ccc(Cl)c(F)c13)CCCC2", "=", 484],
  ["CC[C@@H](NC(=O)N1C(=O)[C@H](Cc2cc(C)nc(N)c2)[C@H]1C(=O)N(C)c1nncs1)c1ccccc1", "<", 10]
]}
